- target_desc: human ether-à-go-go-related gene (hERG) potassium channel (human)
- assay_summary: primary screen, population patch clamp on CHO cells stably expressing hERG; higher = less effect of the substance
About 14,000 (4.5%) of roughly 310,000 compounds showed an effect of 50% or more. Effects have a minus sign here. What follows is part of a selection rich in strong results, with near analogues and random picks from the rest.
Catalogue of hERG current change (%, negative = inhibition) at 10uM values
Entry rule: numbers only, all in %.

Known hERG current change (%, negative = inhibition) at 10uM results, listed for orientation:
1. CN(C)c1cc(N)c2c(n1)CCC2.O=C(O)c1cncc(O)c1 | -10.8
2. CC1=C(C)CC(C(=O)NCCc2ccccc2)C(C(=O)O)C1 (centres unmarked) | -10.8

Form field hERG current change (%, negative = inhibition) at 10uM, entry `CCC(CC)c1nnc(NC(=O)c2cccnc2SC)s1` : 15.4

Lab note: `Cc1ccc(OCc2nc(-c3ccccn3)n[nH]2)cc1` gave hERG current change (%, negative = inhibition) at 10uM of -15.7

Kindly note the recorded hERG current change (%, negative = inhibition) at 10uM for COC(=O)c1ccc(-n2c(C)cc(C(=O)COC(=O)CC3Sc4ccccc4NC3=O)c2C)cc1 (centres unmarked) , which is 28.5

###

- target_desc: human ether-à-go-go-related gene (hERG) potassium channel (human, UniProt Q12809);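 further: peak tail current of the secondary pulse compared with the same well before compound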
- Sequence (Q12809 whole entry, looked up): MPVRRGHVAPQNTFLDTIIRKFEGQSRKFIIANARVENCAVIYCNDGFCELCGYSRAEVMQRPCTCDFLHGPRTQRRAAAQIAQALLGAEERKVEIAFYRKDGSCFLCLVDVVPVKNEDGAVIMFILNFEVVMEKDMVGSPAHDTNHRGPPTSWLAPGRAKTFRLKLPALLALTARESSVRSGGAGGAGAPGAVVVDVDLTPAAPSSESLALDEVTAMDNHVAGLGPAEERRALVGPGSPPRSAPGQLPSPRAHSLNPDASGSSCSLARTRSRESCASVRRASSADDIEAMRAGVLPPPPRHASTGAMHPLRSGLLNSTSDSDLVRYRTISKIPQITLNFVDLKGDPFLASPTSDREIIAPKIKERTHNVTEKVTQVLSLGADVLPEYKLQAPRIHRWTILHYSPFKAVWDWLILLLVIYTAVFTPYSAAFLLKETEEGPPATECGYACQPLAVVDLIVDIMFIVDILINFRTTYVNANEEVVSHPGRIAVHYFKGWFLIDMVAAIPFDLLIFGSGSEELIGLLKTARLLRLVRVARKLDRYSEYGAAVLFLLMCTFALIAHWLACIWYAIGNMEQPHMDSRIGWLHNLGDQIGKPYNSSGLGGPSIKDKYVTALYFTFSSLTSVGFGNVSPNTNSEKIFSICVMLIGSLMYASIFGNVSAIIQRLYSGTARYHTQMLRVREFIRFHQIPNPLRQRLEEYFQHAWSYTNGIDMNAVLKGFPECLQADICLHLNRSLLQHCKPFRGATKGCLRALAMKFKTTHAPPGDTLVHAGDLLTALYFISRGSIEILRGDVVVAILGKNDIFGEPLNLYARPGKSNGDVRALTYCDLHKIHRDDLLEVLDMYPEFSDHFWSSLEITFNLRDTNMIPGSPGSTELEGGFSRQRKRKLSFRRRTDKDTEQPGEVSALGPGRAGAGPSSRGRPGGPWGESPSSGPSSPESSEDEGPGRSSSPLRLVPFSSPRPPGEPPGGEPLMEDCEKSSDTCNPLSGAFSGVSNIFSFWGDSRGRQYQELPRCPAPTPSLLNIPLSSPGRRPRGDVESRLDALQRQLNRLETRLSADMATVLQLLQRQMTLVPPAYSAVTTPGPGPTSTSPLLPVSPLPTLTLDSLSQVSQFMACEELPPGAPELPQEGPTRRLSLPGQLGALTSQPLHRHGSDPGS
- assay_summary: primary screen, population patch clamp on CHO cells stably expressing hERG; higher = less effect of the substance
Hit rate of the full screen: of about 310,000 compounds, about 14,000 (4.5%) showed an effect of 50% or more. The effect is printed as a negative number. For the sample, strong results were picked, then their nearest neighbours and some compounds at random.
measured_attribute: hERG current change (%, negative = inhibition) at 10uM (%)
Dear colleague, please return just the value in %, with no unit written.

1) CCN(CC)c1ccc(N2C(=NC(=O)C3CCCO3)SC3CS(=O)(=O)CC32)cc1 (stereo not shown) | 3.6
2) CCCCn1c(N)c(C(=O)OCCOC)c2nc3ccccc3nc21 | -42.4
3) CCCCCn1c(N)c(C(=O)NCCN2CCOCC2)c2nc3ccccc3nc21 | -17.1
4) CCCCn1c(N)c(C(=O)NCCN2CCOCC2)c2nc3ccccc3nc21 | -64.1
5) CCS(=O)(=O)N1CCN(Cc2ccncc2)CC1.O=C(O)C(=O)O | 13.2
6) CCOC(=O)c1cc2occc2n1CC(=O)Nc1ccc(OC)cc1OC | -15
7) CC(=O)c1ccc(N2C(=NC(=O)C3CCCO3)SC3CS(=O)(=O)CC32)cc1 (stereo not shown) | -39.7
8) CCCCCOC(=O)c1c(N)n(CCOC)c2nc3ccccc3nc12 | -70.2
9) CCCCc1ccc(N2C(=NC(=O)C3CCCO3)SC3CS(=O)(=O)CC32)cc1 (stereo not shown) | -56.5

# evaluate next
Please fill in: hERG current change (%, negative = inhibition) at 10uM reported for `COC(=O)c1c(N)n(CCCN2CCOCC2)c2nc3ccccc3nc12` = -29.9

###

- target_desc: human ether-à-go-go-related gene (hERG) potassium channel (human);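 further: peak tail current of the secondary pulse compared with the same well before compound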
- assay_summary: primary screen, population patch clamp on CHO cells stably expressing hERG; higher = less effect of the substance
- Procedure: Briefly, Chinese hamster ovary (CHO) cells stably expressing the hERG channel were dislodged from tissue culture flasks and dispensed into PPC plates. […] During the recording, background leak currents were estimated by a 100 ms step to -80 mV from an initial holding potential of -70 mV and subtracted from the subsequent current measurement. The campaign was conducted in two phases using slight differences in recording protocol. […]
In all, about 310,000 compounds went through this assay and about 14,000 (4.5%) showed an effect of 50% or more. The effect is printed as a negative number. Many of the other results were omitted from the sample, so strong results are more common in it than they were.
Item-by-item account of hERG current change (%, negative = inhibition) at 10uM
// unit must come after the numeric part

// below: answered compounds
1. COc1cccc(C(C(=O)NC2CCCC2)N(C(=O)c2ccco2)c2cccc(C(C)=O)c2)c1OC (stereo not shown) | 13.9%
2. Cc1ccc(N(C(=O)CNC(=O)c2ccco2)C(C(=O)NC2CCCC2)c2cccnc2)c(C)c1 (stereo not shown) | 10.1%
3. COc1ccccc1CN(C(=O)c1ccco1)C(C(=O)NC1CCCC1)c1ccncc1 (stereo not shown) | -8.04%

Please look at the following compound next.
Record O=C(NCC(=O)N(c1ccccc1)C(C(=O)NC1CCCCC1)c1ccncc1)c1ccco1 (stereo not shown) . Reported hERG current change (%, negative = inhibition) at 10uM: 5.92%

###

- target_desc: human ether-à-go-go-related gene (hERG) potassium channel (human, UniProt Q12809);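 further: peak tail current of the secondary pulse compared with the same well before compound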
- assay_summary: primary screen, population patch clamp on CHO cells stably expressing hERG; higher = less effect of the substance
Screen size: about 310,000 compounds; about 14,000 (4.5%) showed an effect of 50% or more. Effects have a minus sign here. Many of the other results were omitted from the sample, so strong results are more common in it than they were.
Recorded hERG current change (%, negative = inhibition) at 10uM values for a group of compounds are listed next.
The reply must contain the numeric value and, after it, the unit.

Example cases with answers are listed next.
1) CC(NC(=O)c1cccc(S(=O)(=O)N2CCc3ccccc32)c1)c1ccco1 (stereo not drawn) | -48%
2) Cc1ccc(C(=O)N2CCN(C)CC2)cc1S(=O)(=O)N1CCCCCC1 | -25.9%

Query `O=C(N/N=C/c1ccco1)c1cc(-c2cccs2)[nH]n1` yields hERG current change (%, negative = inhibition) at 10uM of 1.93%

Looking up `COc1cc(NC(=O)CN2CCN(c3ccccc3F)CC2)cc(OC)c1` , I see its hERG current change (%, negative = inhibition) at 10uM listed as -10.2%

According to the records, this compound `CC(C)CCNC(=O)c1cc(S(=O)(=O)N2CCc3ccccc32)cn1C` displays hERG current change (%, negative = inhibition) at 10uM of 10.2%

// hERG current change (%, negative = inhibition) at 10uM lookup, compound = `COC(=O)C1=C(c2ccc(OC)c(OC)c2)C[C@@H]2CC[C@H]1N2C(=O)NCCO` , result: 15.5%

Input `O=C1CC(=C(c2ccccc2)c2ccccc2)C(=O)N1CCCN1CCN(c2cccc(Cl)c2)CC1` . Output hERG current change (%, negative = inhibition) at 10uM: 1.35%

According to the records, this compound COc1cccc(NC(=O)N2CCCC2C(=O)NC2CC2)c1 (stereo not drawn) displays hERG current change (%, negative = inhibition) at 10uM of 3.61%

Kindly note the recorded hERG current change (%, negative = inhibition) at 10uM for `Cl.O=C1CC(=C(c2ccccc2)c2ccccc2)C(=O)N1CCCCN1CCN(c2cccc(Cl)c2)CC1` , which is -46%

###

- target_desc: human ether-à-go-go-related gene (hERG) potassium channel (human);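 further: peak tail current of the secondary pulse compared with the same well before compound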
- assay_summary: primary screen, population patch clamp on CHO cells stably expressing hERG; higher = less effect of the substance
The campaign covered roughly 310,000 compounds. About 14,000 (4.5%) showed an effect of 50% or more. Effects have a minus sign here. The sample holds strong results, similar compounds and a random draw of the others, so the mix is not that of the screen.
measured_attribute: hERG current change (%, negative = inhibition) at 10uM (%)
Write the value in % as a bare number.

Previously resolved entries follow.
1. CCOc1ccc(N(C(=O)c2cnccn2)C(C(=O)NC2CCCCC2)c2ccc(O)cc2)cc1 (stereo not shown) | 10.4
2. O=C(Nc1ccc(C(=O)N2CCCC2)cc1)c1ccc(F)cc1Cl | 0.232
3. COC(=O)/C=C1\SC(=NC(=O)c2cccc(Cl)c2)NC1=O | -79.5
4. CCOc1ccc(N(C(=O)c2cnsn2)C(C(=O)NC2CCCCC2)c2ccncc2)cc1 (stereo not shown) | -69.4

hERG current change (%, negative = inhibition) at 10uM for `CCN(Cc1cc2cc(C)ccc2[nH]c1=O)C(=O)c1cccc([N+](=O)[O-])c1` is -37.9

Recorded result, `CC(C)(C)c1ccc(C(=O)Nc2ccc(O)c3c(=O)cc(-c4cccc(Cl)c4)oc23)cc1` , hERG current change (%, negative = inhibition) at 10uM: 17.7

hERG current change (%, negative = inhibition) at 10uM reported for this compound COc1ccc(N(C(=O)c2csnn2)C(C(=O)NC2CCCC2)c2ccccc2)cc1 (stereo not shown) : -9.35

The measured hERG current change (%, negative = inhibition) at 10uM associated with CC(=O)c1cccc(N(C(=O)c2csnn2)C(C(=O)NC2CCCC2)c2ccccc2)c1 (stereo not shown) reads -18.5

Form: compound = `COc1ccc2cc(CCNC(=O)c3cccc([N+](=O)[O-])c3)c(=O)[nH]c2c1` ; hERG current change (%, negative = inhibition) at 10uM = -79.2

For reference, reported hERG current change (%, negative = inhibition) at 10uM for CCc1ccc(N(C(=O)c2csnn2)C(C(=O)NC(C)(C)C)c2ccccn2)cc1 (stereo not shown) stands at -42.7

Measured hERG current change (%, negative = inhibition) at 10uM, CCc1ccc(N(C(=O)c2csnn2)C(C(=O)NC(C)(C)CC)c2ccccn2)cc1 (stereo not shown) : -54.3

These measurements were taken from paper PMC4336329.
